target: recombinant CD81-LEL (Homo sapiens)
Construct: the large extracellular loop of CD81 (CD81-LEL); GST; His; Shoshana Levy Lab, Stanford (gift)
Sequence (P60033 113-201 limits assumed): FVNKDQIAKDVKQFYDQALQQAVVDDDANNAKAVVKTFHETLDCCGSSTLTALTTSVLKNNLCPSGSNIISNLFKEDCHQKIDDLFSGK
assayName: Dual polarization interferometry (DPI) binding of ligands to immobilized recombinant CD81-LEL
conditionSummary: Table B and b111; ligand 500 μM in PBS, 2.5% DMSO
# cutoff 0.7 Radians applies to DPI Response (Radians), ligand added to CD81 protein; >= gives rule met, < gives rule not met

Some solved cases for reference:
{"molecule": "O=C(O)CCC1(c2ccccc2)NC(=O)NC1=O (centres unmarked)", "class": "rule met"}
{"molecule": "O=C(OCc1ccccc1)c1ccccc1O [Benzyl salicylate, reference compound]", "class": "rule not met"}

[in] Is DPI Response (Radians), ligand added to CD81 protein at least 0.7 Radians? Consider CC(C)=CCC1=C(OCC(=O)O)C(=O)c2ccccc2C1=O
[out] rule met

[in] Is DPI Response (Radians), ligand added to CD81 protein at least 0.7 Radians? Consider NC(=S)Nc1cccc(Cl)c1
[out] rule met

[in] Is DPI Response (Radians), ligand added to CD81 protein at least 0.7 Radians? Consider O=C(Cn1ccc(=O)[nH]c1=O)Nc1ccc(C(=O)O)c(O)c1
[out] rule met

###

Assign Inhibition of JS-81 Binding (%) to each entry below.
target: native CD81 on Raji cells (Homo sapiens)
Construct: endogenous in cells; host or cells: Raji (human B cell line)
assayName: Competition assay: inhibition of FITC-labeled JS-81 anti-CD81 antibody binding to native CD81 on live Raji cells (flow cytometry)
Type: cell-based
conditionSummary: 100 μM ligand
Give bare numbers, in %.

{"molecule": "NC(=O)NC(=O)c1nccnc1C(=O)O [Ligand 117922]", "target": "native CD81 on Raji cells (Homo sapiens)", "Inhibition of JS-81 Binding (%)": 12}
{"molecule": "O=C(O)/C(=C/c1ccccc1)c1ccccc1 [Ligand 40614]", "target": "native CD81 on Raji cells (Homo sapiens)", "Inhibition of JS-81 Binding (%)": 8}
{"molecule": "CC(C)(C)c1ccc(NS(=O)(=O)c2ccc(N)cc2)cc1 [Ligand 7436]", "target": "native CD81 on Raji cells (Homo sapiens)", "Inhibition of JS-81 Binding (%)": 12}
{"molecule": "Cc1cc(C)c(N)c(C(=O)O)c1 [Ligand 90444]", "target": "native CD81 on Raji cells (Homo sapiens)", "Inhibition of JS-81 Binding (%)": 0}
{"molecule": "O=C(O)/C=C\\C(=O)Nc1cccc2cccnc12 [Ligand 144958]", "target": "native CD81 on Raji cells (Homo sapiens)", "Inhibition of JS-81 Binding (%)": 54}
{"molecule": "NS(=O)(=O)c1ccc(/N=N/c2c(O)c(C(=O)O)cc3ccccc23)cc1 [Ligand 134137]", "target": "native CD81 on Raji cells (Homo sapiens)", "Inhibition of JS-81 Binding (%)": 6}
{"molecule": "O=C(O)Cn1ccc2ccccc21 [Ligand 75866]", "target": "native CD81 on Raji cells (Homo sapiens)", "Inhibition of JS-81 Binding (%)": 1}
{"molecule": "O=C(O)c1cc2cc(OCc3ccccc3)ccc2[nH]1 [Ligand 30930]", "target": "native CD81 on Raji cells (Homo sapiens)", "Inhibition of JS-81 Binding (%)": 0}
{"molecule": "O=C(Cn1ccc(=O)[nH]c1=O)Nc1ccc(C(=O)O)c(O)c1 [Ligand 93033]", "target": "native CD81 on Raji cells (Homo sapiens)", "Inhibition of JS-81 Binding (%)": 0}

Turning now to a further molecule:
[in] Quote native CD81 on Raji cells (Homo sapiens) Inhibition of JS-81 Binding (%) for entry COc1cc(-c2ccc(Nc3ccccc3C(=O)O)c(OC)c2)ccc1Nc1ccccc1C(=O)O [Ligand 73735] .
[out] 0
